test system: ACT3 (Cla022713); construct: plant material in Methods: Number One; format: biochemical, Citrullus lanatus; conditions: 10 mM acetyl-CoA, 50 mM sodium phosphate pH 7.4, 30 °C; C16-O-acetylation
Reported Km values for a set of molecules
Give the value; after it, write the unit.

Below are worked cases with known answers.
Molecule	Km
CC(C)(O)/C=C/C(=O)[C@](C)(O)[C@H]1[C@H](O)C[C@@]2(C)[C@@H]3CC=C4[C@@H](C=C(O)C(=O)C4(C)C)[C@]3(C)C(=O)C[C@]12C [CuI]	8.62 µM
CC(=O)OC(C)(C)/C=C/C(=O)[C@](C)(O)[C@H]1[C@H](O)C[C@@]2(C)[C@@H]3CC=C4[C@@H](C[C@H](O)C(=O)C4(C)C)[C@]3(C)C(=O)C[C@]12C [CuB]	11.8 µM
CC(=O)OC(C)(C)/C=C/C(=O)[C@](C)(O)[C@H]1[C@H](O)C[C@@]2(C)[C@@H]3CC=C4[C@@H](C=C(O[C@@H]5O[C@H](CO)[C@@H](O)[C@H](O)[C@H]5O)C(=O)C4(C)C)[C@]3(C)C(=O)C[C@]12C [CuE-Glu]	11.6 µM
CC(=O)OC(C)(C)/C=C/C(=O)[C@](C)(O)[C@H]1[C@H](O)C[C@@]2(C)[C@@H]3CC=C4[C@@H](C=C(O)C(=O)C4(C)C)[C@]3(C)C(=O)C[C@]12C [CuE]	7.63 µM

Now take the following molecule into account.
Km for CC(C)(O)/C=C/C(=O)[C@](C)(O)[C@H]1[C@H](O)C[C@@]2(C)[C@@H]3CC=C4[C@@H](C[C@H](O)C(=O)C4(C)C)[C@]3(C)C(=O)C[C@]12C [CuD] is 10.4 µM
